Target: T1, Human CD3eg linker (human)
T1 construct: single-chain construct; also called recombinant human CD3
T1 chain: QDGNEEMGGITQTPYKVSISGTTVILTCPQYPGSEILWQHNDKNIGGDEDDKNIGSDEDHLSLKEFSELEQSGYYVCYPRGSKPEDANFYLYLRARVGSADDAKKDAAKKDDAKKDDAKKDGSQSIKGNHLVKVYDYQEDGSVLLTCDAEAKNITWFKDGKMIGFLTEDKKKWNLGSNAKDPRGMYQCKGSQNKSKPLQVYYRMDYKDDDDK
Experiment: SPR, vs unmutated H183/L072
QUANTITY: fold change of affinity (fold)
Report as a plain number; the unit fold is understood.

[[record]]
binder = "dBBDu183H S62H/dBBDu072L (antibody, name in Kabat numbering, V domains shown) VH: QVQLVESGGGLVQPGRSLRLSCAASGFTFSNAWMHWVRQAPGKGLEWVAQIKDKGNAYAAYYAPHVKGRFTISRDDSKNSIYLQMNSLKTEDTAVYYCHYVHYASASTVLPAFGVDAWGQGTTVTVSS VL: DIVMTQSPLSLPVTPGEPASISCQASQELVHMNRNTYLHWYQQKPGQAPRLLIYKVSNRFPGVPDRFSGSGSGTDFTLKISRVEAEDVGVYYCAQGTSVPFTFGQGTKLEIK"
measured_value = 1.3

[[record]]
binder = "dBBDu183H Y97N/dBBDu072L (antibody, name in Kabat numbering, V domains shown) VH: QVQLVESGGGLVQPGRSLRLSCAASGFTFSNAWMHWVRQAPGKGLEWVAQIKDKGNAYAAYYAPSVKGRFTISRDDSKNSIYLQMNSLKTEDTAVYYCHYVHNASASTVLPAFGVDAWGQGTTVTVSS VL: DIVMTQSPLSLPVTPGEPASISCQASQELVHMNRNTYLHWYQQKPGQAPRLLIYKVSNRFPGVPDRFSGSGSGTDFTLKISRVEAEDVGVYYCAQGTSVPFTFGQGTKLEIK"
measured_value = 0


Problem: Name the recorded fold change of affinity of the binder listed here: dBBDu183H G100hH/dBBDu072L (antibody, name in Kabat numbering, V domains shown) VH: QVQLVESGGGLVQPGRSLRLSCAASGFTFSNAWMHWVRQAPGKGLEWVAQIKDKGNAYAAYYAPSVKGRFTISRDDSKNSIYLQMNSLKTEDTAVYYCHYVHYASASTVLPAFHVDAWGQGTTVTVSS VL: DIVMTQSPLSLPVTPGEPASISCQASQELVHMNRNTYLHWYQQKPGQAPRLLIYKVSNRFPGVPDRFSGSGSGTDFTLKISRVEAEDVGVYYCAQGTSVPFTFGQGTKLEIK
Result: 1.5
